# RUNX1 binding intensity per record follows
target: RUNX1 (UniProt Q01196); experiment: RUNX1 binding intensity (PBM fluorescence), RUNX1 alone (arbitrary fluorescence units); higher = stronger binding; conditions: RUNX1 concentration 2 nM; ETS1 concentration 0 nM;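 note: Full-length recombinant human RUNX1 bound to double-stranded 36-bp genomic probes on a high-density microarray, scored as Alexa488 fluorescence per spot via anti-RUNX1 antibody, median of four replicate spots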
Sequence (Q01196 whole entry): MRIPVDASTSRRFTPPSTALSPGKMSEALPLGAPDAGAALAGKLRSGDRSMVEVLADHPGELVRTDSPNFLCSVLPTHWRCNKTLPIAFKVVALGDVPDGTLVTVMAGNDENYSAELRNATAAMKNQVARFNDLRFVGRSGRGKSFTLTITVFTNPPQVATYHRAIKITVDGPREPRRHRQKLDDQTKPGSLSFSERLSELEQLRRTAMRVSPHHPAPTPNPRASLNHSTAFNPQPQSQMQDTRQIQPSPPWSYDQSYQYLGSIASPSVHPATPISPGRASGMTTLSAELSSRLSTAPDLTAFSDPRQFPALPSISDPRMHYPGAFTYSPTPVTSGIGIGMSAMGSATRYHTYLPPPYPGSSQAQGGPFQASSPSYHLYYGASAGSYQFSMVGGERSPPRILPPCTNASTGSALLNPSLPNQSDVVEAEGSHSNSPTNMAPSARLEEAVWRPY
Reply briefly: the number, and no unit.

Some entries whose results are on file:
| Biopolymer Sequence | Measured Target | RUNX1 binding intensity |
| --- | --- | --- |
| GACTTGGGGGAAGTGGCTTGGTTTGCGTGGTTTCTC | RUNX1 (UniProt Q01196) | 952 |
| GATCTTCCTGCAACCCCCCGAGACAACCACCGAACA | RUNX1 (UniProt Q01196) | 1090 |
| ATTAGAGGTAGAGGAAATACCACATGCAAAGGTTTG | RUNX1 (UniProt Q01196) | 785 |
| ATTGCTTCCGACGCTACTCCTGCCGGGTCACCACAG | RUNX1 (UniProt Q01196) | 785 |
| CCCTTCCTGTGAGGGAGGTTCCAGTTCCCACAGCGG | RUNX1 (UniProt Q01196) | 782 |
| CCAGCTACACAGGATGCTGCGGTGGGCGGAATGCTC | RUNX1 (UniProt Q01196) | 801 |
| TAAATGTTTCCTAAAAGCTCTTTCATAAACCACAGT | RUNX1 (UniProt Q01196) | 970 |
| TGTGATAAGGATGTTCGTGTGCCTTGTGGTCAGGTG | RUNX1 (UniProt Q01196) | 889 |

Give the measured RUNX1 binding intensity of "TCTTGTTTCTTCCGTTACCGGAGCGCGGTCACGTGA" .
979

Another sequence: "GGGGGAGCAAGCGCCTTCCGCGGTCGCTGGGGGGAG"
939

Another sequence: "TGGCAGCGGGTGCGGAAACCACAGGCCTCCAGGCTT"
1480

Another sequence: "CCTGTCCGGAAGTCCTGAGAGGGAATCGCCCGCAAA"
963

Another sequence: "ACCTCAAGCCCAGGATGTGGTTTGGCCACTATTGAG"
804

Another sequence: "TACATAGGCGGAAGTGGCCTGCGGGCGCCGGAGTTG"
714

###

biological target: RUNX1 (UniProt Q01196); experiment: RUNX1 binding intensity (PBM fluorescence), RUNX1 alone (arbitrary fluorescence units); higher = stronger binding; conditions: RUNX1 concentration 2 nM; ETS1 concentration 0 nM
Class field: derived from RUNX1 binding intensity; ranges Low = under 800, Mid = from 800 up to 1000, High = 1000 and over

Examples with answers:
| Biopolymer Sequence | Answer Label |
| --- | --- |
| GTGTGGAAGGAGGAAGCGAGAATGTGGTTACTTAGG | Mid |
| CTAACCCTGCTTCCTCTTAGTGGTTTCCCCCAACCT | High |
| CCTGCCGAGGAAGTCCCACGTCACTGCGGTTAGAGT | High |
| CCCGGGGGCAGGAAATGTCGCCTTACCCACAGCCTT | Mid |
| TAGGCTGAAGACTTCCGCCCCGCAGAGGACTTGCCT | Mid |

Consider "GCACACCGGAACTCACACCTGAAACCACAGAACCAA" . To which RUNX1 binding intensity class does it belong?
High

Another sequence: "GGACAAAACATCATAGGAAGTGGGTTTTGGGGTGAG"
Low

Another sequence: "TTGTCTGCATCCTGTGCTGTGTGGTAGCTCTGGGTT"
Low

Another sequence: "TCTGGAGAAGCAGGATGTGGTTTGCAAGAGGCTTGC"
Low

Another sequence: "AACTGGGCGGAAAGAACGGCTAACCGCAAGCTGCCG"
High
